assayRemarks: chemical genetic growth profiling, strain panel (AID 1159580);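 note: tested at 20 µM; growth read once vehicle control cultures reached saturation at 30 °C; 1 = growth at the plate median or of vehicle wells; lower values mean less growth of the strain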
testParameters: S. cerevisiae deletion strains, growth OD, locus YDR195W, strain ref2
Hit rate of the full screen: of about 5,500 compounds, about 2,000 (36%) were called active. Roughly 18% stayed inconclusive and do not appear here. Some of the results follow.
# normalized growth per entry
measuredQuantity: normalized growth

>>> result("O=C(O)c1ccccc1-c1c2cc(Br)c(=O)cc-2oc2[c]([Hg])c(O)c(Br)cc12")
"0.982 (inactive)"
>>> result("Nc1nc2ncc(=O)[nH]c2c(=O)[nH]1")
"0.949 (inactive)"
>>> result("O=C(O)CN(CC(=O)O)Cc1cc2c(-c3ccccc3C(=O)O)c3cc(CN(CC(=O)O)CC(=O)O)c(=O)cc-3oc2cc1O")
"1.04 (inactive)"

----------
assayRemarks: chemical genetic growth profiling, strain panel (AID 1159580);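 note: tested at 20 µM; growth read once vehicle control cultures reached saturation at 30 °C; 1 = growth at the plate median or of vehicle wells; lower values mean less growth of the strain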
testParameters: S. cerevisiae deletion strains, growth OD, locus YCR088W, strain abp1
Among all 5,500 compounds or so, about 2,000 (36%) were called active. Roughly 18% stayed inconclusive and do not appear here. Cut-off read from the data, not from the text of the source: active = normalized growth mostly below about 0.91 (no sharp cut-off); inconclusive = no clear call, values can overlap the other calls; inactive = mostly above about 0.92. The list shows a part of the results.
Outcomes: True = active, False = inactive

>>> labelclass("C=C1C(=O)O[C@@H]2C[C@@]3(C)CCC[C@H](C)C3=C[C@H]12")
"True"
>>> labelclass("COc1cc2c(cc1OC)C1Cc3ccc(OC)c(OC)c3CN1CC2 (configuration not stated)")
"False"
>>> labelclass("CCN(CC)CCOC(=O)c1ccc(N)cc1")
"False"
>>> labelclass("CCCCC(=O)Oc1ccccc1C(=O)O")
"False"
>>> labelclass("CCOC(=O)[C@H](CCc1ccccc1)N[C@@H](C)C(=O)N1[C@H](C(=O)O)C[C@@H]2CCC[C@@H]21")
"False"
>>> labelclass("CC[N+](CC)(CC)CCOc1cccc(OCC[N+](CC)(CC)CC)c1OCC[N+](CC)(CC)CC")
"False"
>>> labelclass("CCCCCCOc1ccccc1C(N)=O")
"False"
>>> labelclass("Cc1cc(-c2ccccc2)nnc1NCCN1CCOCC1")
"False"
>>> labelclass("CCCCN(CCCC)CCCOC(=O)c1ccc(N)cc1")
"False"
>>> labelclass("CC(C)NCC(O)COc1cccc2ccccc12 (configuration not stated)")
"False"
>>> labelclass("CC(C)NC[C@H](O)COc1cccc2ccccc12")
"False"
>>> labelclass("Oc1ccc(Cl)cc1Cc1cc(Cl)ccc1O")
"True"

----------
# normalized growth per entry
assayRemarks: chemical genetic growth profiling, strain panel (AID 1159580);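 note: tested at 20 µM; growth read once vehicle control cultures reached saturation at 30 °C; 1 = growth at the plate median or of vehicle wells; lower values mean less growth of the strain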
testParameters: S. cerevisiae deletion strains, growth OD, locus YAL026C, strain drs2, hits give low values
Out of some 5,500 compounds screened, about 2,000 (36%) were called active. About 18% were inconclusive and are not listed. The list shows a part of the results.
measuredQuantity: normalized growth

>>> result("O=C(Cn1ccnc1[N+](=O)[O-])NCCO")
"1.02 (inactive)"
>>> result("COC(=O)C1=CCCN(C)C1")
"1.02 (inactive)"
>>> result("COc1c2ccoc2c(OC)c2oc(=O)ccc12")
"0.953 (inactive)"
>>> result("CC[N+](CC)(CC)CCOc1cccc(OCC[N+](CC)(CC)CC)c1OCC[N+](CC)(CC)CC")
"1.01 (inactive)"
>>> result("CO/N=C(\\C(=O)NC1C(=O)N2C(C(=O)O)=C(COC(N)=O)CSC12)c1ccco1 (stereo not given)")
"0.984 (inactive)"
>>> result("O=C(C1CCCCC1)N1CC(=O)N2CCc3ccccc3C2C1 (stereo not given)")
"1 (inactive)"
>>> result("CC(C)NC[C@H](O)COc1cccc2ccccc12")
"1 (inactive)"
>>> result("CCC(C)C(=O)O[C@H]1C[C@H](O)C=C2C=C[C@H](C)[C@H](CC[C@@H](O)C[C@@H](O)CC(=O)O)C21 (stereo not given in full)")
"1.03 (inactive)"
>>> result("COC(=O)[C@@H]1OC(=O)[C@H]2O[C@@]23[C@@]1(C)CCC1[C@@]2(C)CCC(=O)C(C)(C)C2C[C@@H](OC(C)=O)[C@]13C (stereo not given in full)")
"0.992 (inactive)"
>>> result("CC(C)[C@@H]1CC[C@@H](C)C[C@H]1O")
"0.987 (inactive)"
>>> result("CC1C[C@H]2CC(=O)[C@H]3CCCN4CCC[C@H]2[C@]34C1 (stereo not given in full)")
"1.01 (inactive)"
>>> result("C=C1C(=O)O[C@@H]2C3O[C@]3(C)CC/C=C(\\C)CC[C@@H]12 (stereo not given in full)")
"0.914 (inactive)"
>>> result("Cc1cc(NC(=O)C2=C(O)c3ccccc3S(=O)(=O)N2C)no1")
"0.97 (inactive)"
>>> result("Nc1ccc(N=Nc2ccccc2)c(N)n1")
"0.262 (active)"
>>> result("CCOC(=O)[C@H](CCc1ccccc1)N[C@@H](C)C(=O)N1[C@H](C(=O)O)C[C@@H]2CCC[C@@H]21")
"0.985 (inactive)"
>>> result("O=C1CC2OCC=C3CN4CC[C@]56c7ccccc7N1C5[C@H]2[C@H]3CC46 (stereo not given in full)")
"1.03 (inactive)"
>>> result("CC(C)(Oc1ccc(C2CC2(Cl)Cl)cc1)C(=O)O (stereo not given)")
"1 (inactive)"
>>> result("CC1OC1P(=O)(O)O (stereo not given)")
"1.02 (inactive)"
>>> result("O=C1[C@H](CCC(O)c2ccc(F)cc2)[C@@H](c2ccc(O)cc2)N1c1ccc(F)cc1 (stereo not given in full)")
"0.976 (inactive)"
>>> result("O=c1[nH]oc2c1CCNC2")
"1.01 (inactive)"
>>> result("CC(=O)OCC(OC(C)=O)C(OC(C)=O)C(OC(C)=O)C(OC(C)=O)C(COC(C)=O)OC(C)=O (stereo not given)")
"0.993 (inactive)"
>>> result("C=C1CCC2C(CC2(C)C)C(=O)CCC1O (stereo not given)")
"0.996 (inactive)"
>>> result("CC(C)C(C)/C=C/C(C)C1CCC2C3=CC=C4CC(O)CCC4(C)C3CCC21C (stereo not given)")
"0.856 (active)"
>>> result("C#CCCCCCCCCCCCC(=O)CC(O)COC(C)=O (stereo not given)")
"0.982 (inactive)"
>>> result("Cc1cccc(C)c1NC1=NCCCS1")
"0.986 (inactive)"
>>> result("COc1c(OC)c2occc2c2oc(=O)ccc12")
"0.987 (inactive)"
>>> result("CC(C)COCC(CN(Cc1ccccc1)c1ccccc1)N1CCCC1 (stereo not given)")
"1.01 (inactive)"
>>> result("NC(=O)c1cccc(N)c1")
"0.97 (inactive)"
>>> result("OC(Cn1cncn1)(Cn1cncn1)c1ccc(F)cc1F")
"0.911 (inactive)"
>>> result("CC(=O)Oc1c(C)cccc1C(=O)O")
"1.01 (inactive)"
>>> result("N[C@@H](CC(=O)N1CCn2c(nnc2C(F)(F)F)C1)Cc1cc(F)c(F)cc1F")
"0.97 (inactive)"
>>> result("CC1(C)NC(=O)N(c2ccc([N+](=O)[O-])c(C(F)(F)F)c2)C1=O")
"0.983 (inactive)"
>>> result("CC(=O)N[C@@H](CS)C(=O)O")
"1 (inactive)"
>>> result("C#CCCCCCCCCCCCC(O)CC(O)COC(C)=O (stereo not given)")
"0.906 (active)"
>>> result("CC[C@H](C)C(=O)O[C@H]1CCC=C2C=C[C@H](C)C(CCC3C[C@@H](O)CC(=O)O3)[C@H]21 (stereo not given in full)")
"1.02 (inactive)"
>>> result("C=C1CCC(OC(C)=O)/C(C)=C/C[C@@H]2[C@@H]1CC2(C)C (stereo not given in full)")
"1.01 (inactive)"
>>> result("C=C1CCC2C(CC2(C)C)C(=C)CC/C1=N\\O (stereo not given)")
"1.01 (inactive)"
>>> result("OCCOCCN1CCN(C2=Nc3ccccc3Sc3ccccc32)CC1")
"1 (inactive)"
>>> result("Clc1cccc(Cl)c1NC1=NCCN1")
"1.01 (inactive)"
>>> result("NC(N)=NS(=O)(=O)c1ccc(N)cc1")
"0.991 (inactive)"
>>> result("CO/N=C(\\C(=O)NC1C(=O)N2C(C(=O)OC(C)OC(C)=O)=C(COC(N)=O)CSC12)c1ccco1 (stereo not given)")
"0.996 (inactive)"
>>> result("C[C@@H]1C(=O)OC2[C@H](O)C34[C@@H]5OC(=O)[C@@]3(O[C@@H]3OC(=O)[C@H](O)[C@@]34[C@H](C(C)(C)C)[C@H]5O)[C@]21O (stereo not given in full)")
"0.978 (inactive)"
>>> result("COC(=O)C(O)c1ccccc1 (stereo not given)")
"1.01 (inactive)"
>>> result("CO/N=C(\\C(=O)N[C@@H]1C(=O)N2C(C(=O)O)=C(CSc3nc(=O)c(O)nn3C)CS[C@H]12)c1csc(N)n1")
"0.974 (inactive)"
>>> result("CCN(CC)C(=O)c1cccc(C)c1")
"1.03 (inactive)"

Recorded values, source PubChem BioAssay AID1159580.
